Origin of the recorded values: PubChem BioAssay (NCATS)

# experimentNotes: Quantitative High-Throughput drug screen in 47 multiple myeloma cell lines against the NCATS MIPE library collection: OPM1_PLB cell viability assay (AID 1918989); further: nearly all actives have a fitted effect of over 40% in size
# runParameters: CellTiter-Glo, 48 h; series mostly up to 45.8 µM
Records with an inconclusive call do not appear. Calls of active or inactive are those of the source. The call rests on the fitted dose curve; in most records, active means well fitted cell-killing curve with a large enough effect; inconclusive means small, poorly fitted or top-dose-only effect, or effect the other way; inactive means no such curve, though single readings can be large or run the other way.
Select the correct class. Options are active, inactive and nothing else.

Example entries begin here.
[[record]]
compound = "CC1(C)C(N(O)C(=O)Nc2ccc(Cl)cc2)N(c2ccc(Cl)cc2)C(=O)N1CC(=O)NN=CC=Cc1ccc([N+](=O)[O-])o1 (configuration not stated)"
assignedlabel = "active"

[[record]]
compound = "CN(C)N=Nc1nc[nH]c1C(N)=O"
assignedlabel = "active"

[[record]]
compound = "CNC(=O)[C@H](CC1=CN=C2C=CCC=C12)NC(=O)[C@@H](CC(=O)NO)CC(C)C"
assignedlabel = "inactive"

[[record]]
compound = "O=C(O)C1=NC(C(=O)O)CC(C=CN2c3cc(O)c(OC4OC(CO)C(O)C(O)C4O)cc3CC2C(=O)O)=C1 (configuration not stated)"
assignedlabel = "inactive"

[[record]]
compound = "CC1(C)OC2CC3C4CC(F)C5=CC(=O)C=CC5(C)C4C(O)CC3(C)[C@]2(C(=O)CO)O1 (some centres not stated)"
assignedlabel = "inactive"

[[record]]
compound = "Cc1cc(C(C)Nc2ccccc2)c2nc(N3CCOCC3)cc(=O)n2c1 (configuration not stated)"
assignedlabel = "active"

[[record]]
compound = "C=C1c2cccc(O)c2C(O)=C2C(=O)[C@@]3(O)C(O)=C(C(N)=O)C(=O)[C@@H](N(C)C)[C@@H]3[C@@H](O)[C@H]12"
assignedlabel = "active"

[[record]]
compound = "Cc1cn([C@@H]2C[C@@H](O)[C@H](CO)O2)c(=O)[nH]c1=O"
assignedlabel = "inactive"


# input Can you look up the reported call for CC(C)C[C@@H](N)[C@H](O)C(=O)N[C@H](C(=O)N[C@H](C(=O)N[C@@H](CC(=O)O)C(=O)O)C(C)C)C(C)C for me?
# output active

* * *

# experimentNotes: qHTS of pediatric cancer cell lines to identify multiple opportunities for drug repurposing: Primary screen for NB1643 cells (AID 1347099); further: potency means the concentration at half of the fitted maximal effect; nearly all actives have a fitted effect of over 50% in size
# runParameters: NB1643 neuroblastoma viability, CellTiter-Glo luminescence, 48 h; series mostly up to 46 µM
Inconclusive results are not listed. Activity calls are given as the source filed them. The call rests on the fitted dose curve; in most records, active means well fitted cell-killing curve with a large enough effect; inconclusive means small, poorly fitted or top-dose-only effect; inactive means no such curve, though single readings can be large or run the other way.
As shown below, each of these compounds has a reported Potency value.

Consider the worked cases shown below.
[[record]]
chemsmiles = "CNC(=O)c1ccc2c(C(=Nc3cccc(CN(C)C)c3)c3ccccc3)c(O)[nH]c2c1"
result = "16.6 µM (active)"

[[record]]
chemsmiles = "C[C@@H]1[C@H](O)[C@@H](C)C=CC=CC=CC=CC=CC=CC=C[C@H](O[C@@H]2O[C@H](C)[C@H](O)[C@H](N)[C@@H]2O)C[C@@H]2O[C@](O)(C[C@@H](O)C[C@@H](O)[C@H](O)CC[C@@H](O)C[C@@H](O)CC(=O)O[C@H]1C)C[C@H](O)[C@@H]2C(=O)O"
result = "0.166 µM (active)"


// switching to the query compound
# input Param item = CN1N=C(N)c2cn([C@@H]3O[C@H](COP(=O)(O)O)[C@@H](O)[C@@H]3O)c3ncnc1c23 ; retrieve measured Potency.
# output 16.6 µM (active)
